For each entry below, report its IC50 value.
- system_tested: Tyrosine-protein kinase JAK3 (Homo sapiens)
- Sequence (P52333 whole entry, the tested form may be a part): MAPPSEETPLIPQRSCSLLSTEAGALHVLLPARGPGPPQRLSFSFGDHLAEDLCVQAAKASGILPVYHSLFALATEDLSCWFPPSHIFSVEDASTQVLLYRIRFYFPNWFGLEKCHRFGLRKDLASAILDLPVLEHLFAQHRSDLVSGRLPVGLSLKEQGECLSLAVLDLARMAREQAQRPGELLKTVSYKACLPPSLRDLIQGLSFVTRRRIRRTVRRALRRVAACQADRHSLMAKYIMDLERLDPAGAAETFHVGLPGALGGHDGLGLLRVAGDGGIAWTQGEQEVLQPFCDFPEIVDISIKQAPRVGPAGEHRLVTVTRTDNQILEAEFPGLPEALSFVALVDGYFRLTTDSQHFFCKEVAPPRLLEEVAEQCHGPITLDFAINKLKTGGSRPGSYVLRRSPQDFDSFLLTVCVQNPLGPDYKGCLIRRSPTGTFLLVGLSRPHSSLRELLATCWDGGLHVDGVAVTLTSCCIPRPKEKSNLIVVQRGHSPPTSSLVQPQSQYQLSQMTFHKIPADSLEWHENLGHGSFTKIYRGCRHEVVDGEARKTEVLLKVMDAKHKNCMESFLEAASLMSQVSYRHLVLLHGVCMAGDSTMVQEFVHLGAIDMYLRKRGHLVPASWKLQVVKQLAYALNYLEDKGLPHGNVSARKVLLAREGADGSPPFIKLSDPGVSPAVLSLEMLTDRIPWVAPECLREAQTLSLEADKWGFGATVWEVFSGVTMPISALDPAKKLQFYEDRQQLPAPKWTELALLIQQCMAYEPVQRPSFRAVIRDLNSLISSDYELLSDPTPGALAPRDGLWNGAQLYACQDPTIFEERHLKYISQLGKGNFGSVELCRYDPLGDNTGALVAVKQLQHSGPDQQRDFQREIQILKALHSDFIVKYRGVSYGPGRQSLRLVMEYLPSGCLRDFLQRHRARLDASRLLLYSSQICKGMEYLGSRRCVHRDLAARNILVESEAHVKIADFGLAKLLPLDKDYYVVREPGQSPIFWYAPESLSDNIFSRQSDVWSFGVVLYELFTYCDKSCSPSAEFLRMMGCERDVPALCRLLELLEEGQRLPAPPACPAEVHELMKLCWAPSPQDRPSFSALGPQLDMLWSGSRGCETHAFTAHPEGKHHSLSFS
- assay_overview: Inhibition of N-terminal GST-fused recombinant JAK3 (781 to 1124 residues) (unknown origin) expressed in insect cells using 5FAM-GEEPLYWSFPAKKK-NH2 as substrate by microfluidic capillary electrophoresis method

List reported IC50 for each of these compounds:
1. COc1ccc(-c2nc3c(NCC4CCN(C)CC4)c(C#N)cnc3[nH]2)cc1
2. COCCNc1c(Cl)cnc2[nH]c(-c3ccc(OC)cc3)nc12
3. COc1ccccc1-c1nc2c(NCC3CCN(C)CC3)c(Cl)cnc2[nH]1
4. COc1ccc(-c2nc3c(NCC4CCNC4)c(Cl)cnc3[nH]2)cc1 (centres undefined)

> 30 µM
> 30 µM
> 30 µM
> 22 µM

====

Exercise: state measured IC50 for each of the compounds provided.
- system_tested: Tyrosine-protein kinase JAK2 (Homo sapiens, UniProt O60674)
- Sequence (O60674 whole entry, the tested form may be a part): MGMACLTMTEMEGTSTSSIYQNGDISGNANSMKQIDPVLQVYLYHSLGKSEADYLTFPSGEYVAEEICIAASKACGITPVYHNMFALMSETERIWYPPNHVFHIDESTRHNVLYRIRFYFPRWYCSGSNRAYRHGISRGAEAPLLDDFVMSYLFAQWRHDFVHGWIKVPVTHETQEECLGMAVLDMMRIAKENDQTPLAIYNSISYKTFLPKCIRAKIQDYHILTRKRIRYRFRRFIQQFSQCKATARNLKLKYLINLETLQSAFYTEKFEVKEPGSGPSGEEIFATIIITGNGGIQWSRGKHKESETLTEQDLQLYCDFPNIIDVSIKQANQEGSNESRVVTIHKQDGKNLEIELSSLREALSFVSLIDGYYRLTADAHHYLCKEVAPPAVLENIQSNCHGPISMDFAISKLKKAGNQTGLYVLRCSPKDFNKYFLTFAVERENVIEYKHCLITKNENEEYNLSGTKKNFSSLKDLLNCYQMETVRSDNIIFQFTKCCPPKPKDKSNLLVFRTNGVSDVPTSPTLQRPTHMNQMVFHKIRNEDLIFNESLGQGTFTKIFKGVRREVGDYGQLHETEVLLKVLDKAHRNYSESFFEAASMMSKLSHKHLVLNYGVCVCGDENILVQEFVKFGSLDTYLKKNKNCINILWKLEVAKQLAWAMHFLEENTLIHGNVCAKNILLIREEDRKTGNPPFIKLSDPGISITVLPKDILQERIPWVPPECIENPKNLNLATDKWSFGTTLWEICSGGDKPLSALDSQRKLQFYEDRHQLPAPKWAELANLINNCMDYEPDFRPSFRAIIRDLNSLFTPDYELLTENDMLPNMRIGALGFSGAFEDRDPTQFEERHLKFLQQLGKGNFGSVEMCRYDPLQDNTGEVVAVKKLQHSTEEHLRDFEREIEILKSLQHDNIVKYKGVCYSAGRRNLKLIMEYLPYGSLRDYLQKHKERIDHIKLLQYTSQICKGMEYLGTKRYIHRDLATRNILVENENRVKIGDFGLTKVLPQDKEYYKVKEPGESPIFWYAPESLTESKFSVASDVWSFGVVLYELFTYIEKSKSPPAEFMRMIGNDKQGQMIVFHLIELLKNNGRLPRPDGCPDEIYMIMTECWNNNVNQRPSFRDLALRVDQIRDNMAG
- assay_overview: Inhibition of N-terminal GST-fused recombinant JAK2 (831 to 1132 residues) (unknown origin) expressed in insect cells using 5FAM-GEEPLYWSFPAKKK-NH2 as substrate by microfluidic capillary electrophoresis method

Worked examples follow.
COc1ccc(-c2nc3c(NC4CCN(C(C)=O)CC4)c(Cl)cnc3[nH]2)cc1 ... > 30 µM
COc1ccc(F)c(-c2nc3c(NCC4CCN(C)CC4)c(Cl)cnc3[nH]2)c1 ... > 30 µM
COc1cc(F)c(-c2nc3c(NCC4CCNCC4)c(Cl)cnc3[nH]2)cc1OC ... > 22 µM
COc1ccc(-c2nc3c(N(C)CC4CCNCC4)c(Cl)cnc3[nH]2)cc1 ... > 30 µM

Attention now turns to another entry.
Given the compound COc1cc(F)c(-c2nc3c(NCC4CCNCC4)c(Cl)cnc3[nH]2)cc1F , write its reported IC50.
> 17 µM

====

Could you please report measured pIC50 for the items listed next?
- system_tested: Tyrosine-protein kinase JAK2 (Homo sapiens)
- assay_overview: Inhibition of N-terminal GST-fused recombinant JAK2 (831 to 1132 residues) (unknown origin) expressed in insect cells using 5FAM-GEEPLYWSFPAKKK-NH2 as substrate by microfluidic capillary electrophoresis method
pIC50: −log10 of the molar value.

CNc1c(Cl)cnc2[nH]c(-c3ccc(OC)cc3)nc12 ... < 4.52

Items follow; give pIC50 for each.
1. COc1ccc(-c2nc3c(NCC4CCN(C)CC4)c(C#N)cnc3[nH]2)cc1
2. COCCNc1c(Cl)cnc2[nH]c(-c3ccc(OC)cc3)nc12

< 4.52
< 4.52

====

- Species on record: Homo sapiens
- assay_overview: Selectivity ratio of IC50 for N-terminal GST-fused recombinant JAK2 (831 to 1132 residues) (unknown origin) to N-terminal GST-fused human recombinant JAK1 (866 to 1154 residues)
Record form. Attribute: Ratio IC50. Fill in for each entry.

// known answers, use as guide
COc1ccc(-c2nc3c(NCC4CCN(C)CC4)c(C(N)=O)cnc3[nH]2)cc1 ... 10
COc1ccc(-c2nc3c(NCC4CCN(C)CC4)c(C#N)cnc3[nH]2)cc1 ... > 6

Query molecule follows.
Fill in reported Ratio IC50 for this entry: COc1ccc(-c2nc3c(N(C)CC4CCNCC4)c(Cl)cnc3[nH]2)cc1
> 34
